Provide the reported viability, T/C of each item.
Tested on: T-47D spheroids with HUVEC/MSC, viability
Test: Anticancer human tumor T-47D cell line growth inhibition [PI3K];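 note: spheroids exposed to agents for seven days before reading; percent of DMSO vehicle control luminescence so 100% = untreated growth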
Settings: second compound 0.1 µM; first compound 0.316 µM; stronger effect = lower value

Below: 5 compounds and their reported viability, T/C.
query: Item CC1(C)CCC(Nc2ncc(C(F)(F)F)c(-c3c[nH]c4c(P(C)(C)=O)c(C#N)ccc34)n2)CN1 (stereo not given) + CC(Nc1ncnc2nc[nH]c12)c1cc2cccc(Cl)c2c(=O)n1-c1ccccc1 with T-47D spheroids with HUVEC/MSC, viability - viability, T/C?
result: 69.7%

query: Note, next up: C[C@@H](NC(=O)c1ncnc(N)c1Cl)c1ncc(C(=O)Nc2cc(C(F)(F)F)c(Cl)cn2)s1 + COc1c(OCCCN2CCOCC2)ccc2c3n(c(=NC(=O)c4cnc(N)nc4)nc12)CCN3
result: 35.5%

query: Note, next up: CC1(C)CCC(CN2CCN(c3ccc(C(=O)NS(=O)(=O)c4ccc(NCC5CCOCC5)c([N+](=O)[O-])c4)c(Oc4cnc5[nH]ccc5c4)c3)CC2)=C(c2ccc(Cl)cc2)C1 + CC(Nc1ncnc2nc[nH]c12)c1cc2cccc(Cl)c2c(=O)n1-c1ccccc1
result: 99.5%

query: Note, next up: CC1(C)CCC(Nc2ncc(C(F)(F)F)c(-c3c[nH]c4c(P(C)(C)=O)c(C#N)ccc34)n2)CN1 (stereo not given) + COc1c(OCCCN2CCOCC2)ccc2c3n(c(=NC(=O)c4cnc(N)nc4)nc12)CCN3
result: 28.8%

query: Note, next up: CC(C)NCC(C(=O)N1CCN(c2ncnc3c2C(C)CC3O)CC1)c1ccc(Cl)cc1 (stereo not given) + Cc1nc(NC(=O)N2CCCC2C(N)=O)sc1-c1ccnc(C(C)(C)C(F)(F)F)c1
result: 81.1%

Give viability, T/C for all compounds that follow.
1. C#Cc1c(F)ccc2cc(O)cc(-c3ncc4c(N5CC6CCC(C5)N6)nc(OCC56CCCN5CC(F)C6)nc4c3F)c12 (stereo not given) + COc1c(OCCCN2CCOCC2)ccc2c3n(c(=NC(=O)c4cnc(N)nc4)nc12)CCN3
2. CC(Cn1ccc(-c2ccc(C#N)c(Cl)c2)n1)NC(=O)c1cc(C(C)O)[nH]n1 (stereo not given) + CC(Nc1ccc2c(c1)OCCn1cc(N3C(=O)OCC3C(F)F)nc1-2)C(N)=O
3. C[C@@H](NC(=O)c1ncnc(N)c1Cl)c1ncc(C(=O)Nc2cc(C(F)(F)F)c(Cl)cn2)s1 + CC(Nc1ccc2c(c1)OCCn1cc(N3C(=O)OCC3C(F)F)nc1-2)C(N)=O
4. C=CC(=O)N1CCN(c2nc(=O)n(-c3c(C)ccnc3C(C)C)c3nc(-c4c(O)cccc4F)c(F)cc23)C(C)C1 (stereo not given) + CC(Nc1ccc2c(c1)OCCn1cc(N3C(=O)OCC3C(F)F)nc1-2)C(N)=O

result:
["46.8%", "76.2%", "83.3%", "83.8%"]

query: Item CC(Cn1ccc(-c2ccc(C#N)c(Cl)c2)n1)NC(=O)c1cc(C(C)O)[nH]n1 (stereo not given) + Cc1nc(NC(=O)N2CCCC2C(N)=O)sc1-c1ccnc(C(C)(C)C(F)(F)F)c1 with T-47D spheroids with HUVEC/MSC, viability - viability, T/C?
result: 91.8%
